target: Cholinesterase (Mus musculus, UniProt Q03311)
Sequence (Q03311 whole entry): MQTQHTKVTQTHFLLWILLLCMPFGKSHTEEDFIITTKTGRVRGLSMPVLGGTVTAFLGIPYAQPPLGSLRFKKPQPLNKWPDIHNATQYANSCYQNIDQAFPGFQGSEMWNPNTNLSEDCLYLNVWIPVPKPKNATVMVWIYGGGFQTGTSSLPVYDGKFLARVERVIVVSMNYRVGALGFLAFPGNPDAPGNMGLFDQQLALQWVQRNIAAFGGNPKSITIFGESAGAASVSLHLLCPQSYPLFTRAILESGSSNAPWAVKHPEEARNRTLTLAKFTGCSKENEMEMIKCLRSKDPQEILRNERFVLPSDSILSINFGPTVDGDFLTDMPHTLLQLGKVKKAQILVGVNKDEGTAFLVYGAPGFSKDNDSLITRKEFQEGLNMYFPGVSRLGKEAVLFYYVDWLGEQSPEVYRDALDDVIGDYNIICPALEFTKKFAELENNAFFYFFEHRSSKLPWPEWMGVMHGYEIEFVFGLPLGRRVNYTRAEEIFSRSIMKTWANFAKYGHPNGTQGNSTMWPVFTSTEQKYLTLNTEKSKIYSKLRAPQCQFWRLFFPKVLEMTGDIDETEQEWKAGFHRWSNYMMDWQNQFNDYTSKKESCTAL
Label Y when IC50 is strictly below 2000 nM; otherwise label N.

Please determine if N#Cc1ccc2[nH]cc(CCCN3CCN(c4ccc(C(=O)CCC5CCN(Cc6cc[nH]c6)CC5)cc4)CC3)c2c1 is below 2000 nM in terms of IC50. Y

Please determine if N#Cc1ccc2[nH]cc(CCCCN3CCN(c4ccc(C(=O)CCC5CCN(CC6CCCCC6)CC5)cc4)CC3)c2c1 is below 2000 nM in terms of IC50. N

Please determine if N#Cc1ccc2[nH]cc(CCCCN3CCN(c4ccc5c(c4)CC(CC4CCN(Cc6ccccc6)CC4)C5=O)CC3)c2c1 (stereo unspecified) is below 2000 nM in terms of IC50. Y
